measurement-target: human Gal-1 (hGal-1)
Sequence (P09382 2-135 limits assumed): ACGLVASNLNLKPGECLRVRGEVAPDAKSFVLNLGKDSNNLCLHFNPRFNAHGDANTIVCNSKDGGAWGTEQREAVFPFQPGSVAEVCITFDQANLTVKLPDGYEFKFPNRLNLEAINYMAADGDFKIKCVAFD
experiment: Competitive binding assay: biotinylated hGal-1 binding to microplate-adsorbed asialofetuin (ASF)
test-context: Activity on hGal-1; binding of biotinylated hGal-1 to ASF-coated plates; mean values
pIC50: −log10 of the molar value.
Measured pIC50 by item

{"columns": ["compound", "pIC50"],
 "data": [
  ["CC(=O)O[C@@H]1[C@@H](n2cc(-c3cc(F)cc(F)c3)nn2)[C@@H](O)[C@@H](CO)O[C@H]1C(=O)N(Cc1ccccc1C(F)(F)F)[C@H]1CCCC[C@@H]1O [Example 63]", 5.99],
  ["COc1cccc(OC)c1CN(C(=O)[C@@H]1O[C@H](CO)[C@H](O)[C@H](n2cc(-c3cc(F)c(F)c(F)c3)nn2)[C@H]1OC)[C@H]1CCCC[C@@H]1O [Example 40]", 5.33],
  ["O=C([C@@H]1O[C@H](CO)[C@H](O)[C@H](n2cc(-c3cc(F)c(F)c(F)c3)nn2)[C@H]1O)N(Cc1csc(Br)n1)[C@H]1CCCC[C@@H]1O [Example 20]", 4.93],
  ["O=C([C@@H]1O[C@H](CO)[C@H](O)[C@H](n2cc(-c3cc(F)c(F)c(F)c3)nn2)[C@H]1O)N(Cc1ccc(Cl)s1)[C@H]1CCCC[C@@H]1O [Example 22]", 4.06],
  ["CO[C@@H]1[C@@H](n2cc(-c3ccc(Cl)c(F)c3)nn2)[C@@H](O)[C@@H](CO)O[C@H]1C(=O)N(c1cc(Cl)cc(Cl)c1)[C@H]1CCCC[C@@H]1O [Example 179]", 6.23]
]}

----------
Measured log10 of IC50 by item
measurement-target: human Gal-1 (hGal-1)
experiment: Competitive binding assay: biotinylated hGal-1 binding to microplate-adsorbed asialofetuin (ASF)
test-context: Activity on hGal-1; binding of biotinylated hGal-1 to ASF-coated plates; mean values
measurement-label: log10 of IC50 (log10 of the value in nM)

{"columns": ["compound", "measurement-target", "log10 of IC50"],
 "data": [
  ["CO[C@@H]1[C@@H](n2cc(-c3cc(F)cc(F)c3)nn2)[C@@H](O)[C@@H](CO)O[C@H]1C(=O)N(c1cc(C)cc(C#N)c1)[C@H]1CCCC[C@@H]1O [Example 81]", "human Gal-1 (hGal-1)", 3.12],
  ["O=C(CO[C@@H]1[C@@H](n2cc(-c3cc(F)c(F)c(F)c3)nn2)[C@@H](O)[C@@H](CO)O[C@H]1C(=O)N(c1cc(Cl)cc(Cl)c1)[C@H]1CCCC[C@@H]1O)N1CCOCC1 [Example 124]", "human Gal-1 (hGal-1)", 2.35],
  ["CO[C@@H]1[C@@H](n2cc(-c3cc(F)c(F)c(F)c3)nn2)[C@@H](O)[C@@H](CO)O[C@H]1C(=O)N(c1cccc(C)c1)[C@H]1CCCC[C@@H]1O [Example 122]", "human Gal-1 (hGal-1)", 3.68],
  ["CO[C@@H]1[C@@H](n2cc(-c3cc(F)cc(F)c3)nn2)[C@@H](O)[C@@H](CO)O[C@H]1C(=O)N(c1cccc(Cl)c1)[C@H]1CCCC[C@@H]1O [Example 85]", "human Gal-1 (hGal-1)", 3.23],
  ["CC(=O)O[C@@H]1[C@@H](n2cc(-c3cccc(F)c3)nn2)[C@@H](O)[C@@H](CO)O[C@H]1C(=O)N(Cc1ccnn1C)[C@H]1CCCC[C@@H]1O [Example 52]", "human Gal-1 (hGal-1)", 3.20],
  ["CO[C@@H]1[C@@H](n2cc(-c3ccc(F)c(F)c3)nn2)[C@@H](O)[C@@H](CO)O[C@H]1C(=O)N(c1cc(Cl)cc(Cl)c1)[C@H]1CCCC[C@@H]1O [Example 162]", "human Gal-1 (hGal-1)", 2.13],
  ["CO[C@@H]1[C@@H](n2cc(-c3cc(F)c(Br)c(F)c3)nn2)[C@@H](O)[C@@H](CO)O[C@H]1C(=O)N(c1cc(F)cc(C#N)c1)[C@H]1CCCC[C@@H]1O [Example 155]", "human Gal-1 (hGal-1)", 3.18],
  ["CO[C@@H]1[C@@H](n2cc(-c3cc(F)c(F)c(F)c3)nn2)[C@@H](O)[C@@H](CO)O[C@H]1C(=O)N(Cc1ccccc1Cl)[C@H]1CCCC[C@@H]1O [Example 12]", "human Gal-1 (hGal-1)", 2.70],
  ["CO[C@@H]1[C@@H](n2cc(-c3cc(F)c(C)c(F)c3)nn2)[C@@H](O)[C@@H](CO)O[C@H]1C(=O)N(c1cc(Cl)cc(C#N)c1)[C@H]1CCCC[C@@H]1O [Example 159]", "human Gal-1 (hGal-1)", 2.72],
  ["CO[C@@H]1[C@@H](n2cc(-c3cc(F)c(F)c(F)c3)nn2)[C@@H](O)[C@@H](CO)O[C@H]1C(=O)N(c1cc(C)n(C)n1)[C@H]1CCCC[C@@H]1O [Example 199]", "human Gal-1 (hGal-1)", 4.26]
]}
